tested on: T1, EsCas13d, nuclease-dead (Eubacterium siraeum, UniProt B0MS50, R295A;H300A;R849A;H854A)
T1 sequence: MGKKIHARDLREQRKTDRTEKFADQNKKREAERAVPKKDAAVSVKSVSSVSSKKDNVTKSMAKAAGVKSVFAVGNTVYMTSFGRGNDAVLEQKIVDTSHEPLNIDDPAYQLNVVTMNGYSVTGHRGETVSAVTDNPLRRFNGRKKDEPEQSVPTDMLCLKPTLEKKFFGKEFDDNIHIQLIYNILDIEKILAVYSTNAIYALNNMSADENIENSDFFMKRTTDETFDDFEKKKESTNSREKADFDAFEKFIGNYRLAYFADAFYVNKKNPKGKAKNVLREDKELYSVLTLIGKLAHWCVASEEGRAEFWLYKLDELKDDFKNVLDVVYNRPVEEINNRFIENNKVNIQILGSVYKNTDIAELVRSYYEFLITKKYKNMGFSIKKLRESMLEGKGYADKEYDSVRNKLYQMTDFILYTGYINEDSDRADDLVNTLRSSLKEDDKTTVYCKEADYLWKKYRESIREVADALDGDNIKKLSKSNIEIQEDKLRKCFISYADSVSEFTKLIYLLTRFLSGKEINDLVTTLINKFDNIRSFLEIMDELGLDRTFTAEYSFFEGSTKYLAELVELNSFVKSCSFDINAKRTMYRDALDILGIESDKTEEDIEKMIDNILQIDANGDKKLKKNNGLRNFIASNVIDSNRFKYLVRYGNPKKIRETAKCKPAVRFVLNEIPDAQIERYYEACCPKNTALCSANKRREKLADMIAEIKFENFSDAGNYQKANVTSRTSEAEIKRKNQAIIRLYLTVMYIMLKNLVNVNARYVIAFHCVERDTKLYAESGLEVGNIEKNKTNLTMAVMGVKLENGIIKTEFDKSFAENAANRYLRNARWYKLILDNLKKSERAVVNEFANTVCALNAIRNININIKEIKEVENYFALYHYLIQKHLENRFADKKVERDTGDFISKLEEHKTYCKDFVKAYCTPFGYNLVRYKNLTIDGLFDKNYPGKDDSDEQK
test: crRNA (strand 1, pre-loaded); Mg2+; 40 mM Tris-HCl pH 7.5, 150 mM NaCl, 6 mM MgCl2, 1 mM DTT, 0.1% Tween-20, 0.2 mg/ml BSA; 25 C; 10 min per concentration, then washed
test context: tags: His6-TwinStrep-SUMO cleaved; N-terminal SNAP kept (SNAP-Surface 488); label: 3' end held by stalled T7 RNA polymerase
measure: Kd (nM)
Only the number, expressed in nM, is required.

Some binders with recorded Kd:
binder	Kd, nM
target 1 MT 5'PFS GCC 3'PFS UGC (mixed) RNA 1: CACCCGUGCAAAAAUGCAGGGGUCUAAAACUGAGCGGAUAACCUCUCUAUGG RNA 2: GGGAAUGGAUCCACAUCUACGAAUUCGCCCCAUAGAGAGGUUAUCCGCUCAUGCAGAUCGGAAGAGCACACGU	9
target 1 del17,del18 (mixed) RNA 1: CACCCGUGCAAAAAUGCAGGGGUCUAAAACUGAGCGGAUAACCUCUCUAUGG RNA 2: GGGAAUGGAUCCACAUCUACGAAUUCGUACCAUAGAGGUUAUCCGCUCACCGAGAUCGGAAGAGCACACGU	13.9

Moving on to the next binder.
Provide measured Kd value, entry: target 1 C4G,U11C (mixed) RNA 1: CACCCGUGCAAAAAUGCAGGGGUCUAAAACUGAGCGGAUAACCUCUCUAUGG RNA 2: GGGAAUGGAUCCACAUCUACGAAUUCGUACCAUAGAGAGGCUAUCCGGUCACCGAGAUCGGAAGAGCACACGU 9
